# test.system: F508delCFTR (Homo sapiens, UniProt P13569, DEL508-508)
# Construct: expressed in transfected cells; host or cells: CFBE41o- (human lung derived epithelial cell line), doxycycline-inducible
# Sequence (P13569 with tags, fused parts or gaps DEL508-508): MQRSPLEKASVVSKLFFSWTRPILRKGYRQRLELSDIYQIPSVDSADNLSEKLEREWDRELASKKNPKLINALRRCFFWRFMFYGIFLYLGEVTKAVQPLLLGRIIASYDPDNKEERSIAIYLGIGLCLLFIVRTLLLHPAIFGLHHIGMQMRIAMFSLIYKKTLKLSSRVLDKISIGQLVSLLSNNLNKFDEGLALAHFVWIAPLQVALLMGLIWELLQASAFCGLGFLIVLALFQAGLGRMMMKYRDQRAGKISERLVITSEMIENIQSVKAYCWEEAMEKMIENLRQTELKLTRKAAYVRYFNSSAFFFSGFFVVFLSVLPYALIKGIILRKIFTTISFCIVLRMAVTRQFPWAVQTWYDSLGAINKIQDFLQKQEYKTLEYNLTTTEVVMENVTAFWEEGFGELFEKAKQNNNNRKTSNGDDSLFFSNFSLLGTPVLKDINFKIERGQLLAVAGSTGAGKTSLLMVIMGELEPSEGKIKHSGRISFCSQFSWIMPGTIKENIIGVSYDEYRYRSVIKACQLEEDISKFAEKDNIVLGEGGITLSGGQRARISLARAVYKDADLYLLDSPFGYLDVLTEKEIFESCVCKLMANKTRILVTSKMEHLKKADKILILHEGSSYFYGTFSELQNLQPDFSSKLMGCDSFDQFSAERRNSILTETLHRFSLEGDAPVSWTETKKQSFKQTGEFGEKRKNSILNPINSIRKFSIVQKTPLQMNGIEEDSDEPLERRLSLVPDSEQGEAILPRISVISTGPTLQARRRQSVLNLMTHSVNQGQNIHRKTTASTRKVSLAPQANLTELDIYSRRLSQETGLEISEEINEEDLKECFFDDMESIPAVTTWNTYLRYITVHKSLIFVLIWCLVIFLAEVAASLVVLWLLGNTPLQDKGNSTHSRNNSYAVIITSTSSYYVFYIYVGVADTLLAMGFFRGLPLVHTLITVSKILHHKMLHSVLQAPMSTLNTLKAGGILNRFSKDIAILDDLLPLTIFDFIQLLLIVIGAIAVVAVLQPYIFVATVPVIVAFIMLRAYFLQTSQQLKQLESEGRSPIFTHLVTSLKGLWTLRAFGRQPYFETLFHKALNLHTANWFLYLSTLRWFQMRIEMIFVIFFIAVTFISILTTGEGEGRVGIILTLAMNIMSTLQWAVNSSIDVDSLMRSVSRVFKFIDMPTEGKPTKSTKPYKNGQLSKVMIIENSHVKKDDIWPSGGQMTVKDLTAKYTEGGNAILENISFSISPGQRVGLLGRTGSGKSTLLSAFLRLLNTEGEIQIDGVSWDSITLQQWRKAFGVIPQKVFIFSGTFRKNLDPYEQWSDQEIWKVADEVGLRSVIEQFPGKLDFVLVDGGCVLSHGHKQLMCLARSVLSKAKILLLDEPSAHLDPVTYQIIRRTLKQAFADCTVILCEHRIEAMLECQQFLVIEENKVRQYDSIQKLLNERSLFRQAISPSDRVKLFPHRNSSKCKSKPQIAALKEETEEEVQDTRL
# protocol.notes: Cell Surface Expression-Horse Radish Peroxidase (CSE-HRP) assay
# Assay type: cell-based
# details: CFBE41o-F508delCFTR-HRP cells; maximum at any tested concentration, normalized to on-plate positive control (3 μM)
Here, each record is paired with measured Maximum % activity data.
Answer format: numeric, % implied, no suffix.

O=C(N[C@@H]1C[C@H]([C@H]2CC[C@H](C(=O)O)CC2)Oc2cc(OC(F)(F)F)ccc21)C1(c2ccc3c(c2)OC(F)(F)O3)CC1
124.0

Retrieve Maximum % activity measured for COc1ccc(C2(C(=O)N[C@@H]3C[C@H](c4cccc(C(=O)O)c4)Oc4cc(OC)ccc43)CC2)cc1 and print it.
35.3

Retrieve Maximum % activity measured for C[C@@]1(C(=O)N[C@@H]2C[C@H](c3cccc(C(=O)O)c3)Oc3ccccc32)CCc2ccc(Cl)cc21 and print it.
1.2

Retrieve Maximum % activity measured for COc1ccc(C(C)(C)C(=O)N[C@@H]2C[C@H](c3ccc(C(=O)O)cc3)Oc3cc(OC)ccc32)cc1 and print it.
49.6

Retrieve Maximum % activity measured for COc1ccc2c(c1)O[C@@H](c1ccc(C(=O)O)cc1)C[C@H]2NC(=O)C1(c2ccccc2OC)CC1 and print it.
29.0

Retrieve Maximum % activity measured for COc1ccc2c(c1)O[C@@H](c1ccc(C(=O)O)cc1)C[C@H]2NC(=O)C1(c2ccccc2C(F)(F)F)CCC1 and print it.
23.3
